- tested_target: BRD4 (BDII_E352-M457) (Homo sapiens, UniProt O60885)
- assay_overview: TR-FRET bromodomain binding assay, BRD4 second bromodomain
- setup_conditions: His-tagged BD2, Alexa647-labeled probe 30 nM; Ki calculated from IC50
Listed below: log10(Ki) values for each entry.
Log10 applied to Ki; unit prior to transform: µM.

# example entries with known answers
INSERT INTO assay_data (molecule, test_readout, numeric_result) VALUES
  ('Cc1[nH]c(-c2ccc(-c3ccsc3)cc2)cc1C(N)=O [Example 101]', 'log10(Ki)', 0.73),
  ('COC(=O)CCNC(=O)c1cc(-c2ccc(-c3c(C)noc3C)cc2)[nH]c1C [Example 93]', 'log10(Ki)', 0.81),
  ('Cc1[nH]c(-c2ccccc2NCC2CCCO2)cc1C(N)=O (stereo not drawn) [Example 13]', 'log10(Ki)', 0.66),
  ('Cc1[nH]c(-c2ccccc2NC(=O)Cc2ccccc2)cc1C(N)=O [Example 76]', 'log10(Ki)', 0.47),
  ('Cc1[nH]c(-c2ccc(-c3cnn(Cc4ccccc4)c3)cc2)cc1C(N)=O [Example 111]', 'log10(Ki)', 0.76);

# molecule Cc1[nH]c(-c2ccccc2NCc2ccc(N)cc2)cc1C(N)=O [Example 52] ; its log10(Ki) = 1.21

Query Cc1[nH]c(-c2ccccc2NC2CCCCC2F)cc1C(N)=O (stereo not drawn) [Example 75] yields log10(Ki) of -0.65

Reported log10(Ki) ( Cc1cc(CNc2ccccc2-c2cc(C(N)=O)c(C)[nH]2)oc1C [Example 20] ) = 0.52

Noted for Cc1[nH]c(-c2ccc(-c3cccc(C(=O)NCc4ccco4)c3)cc2)cc1C(N)=O [Example 106] : its log10(Ki) reads 0.69

###

- tested_target: BRD4 (BDI_K57-E168) (Homo sapiens, UniProt O60885)
- Construct: BD1: amino acids K57-E168; made in house
- assay_overview: TR-FRET bromodomain binding assay, BRD4 first bromodomain
- setup_conditions: His-tagged BD1, Alexa647-labeled probe 100 nM; Ki calculated from IC50
pKi: −log10 of the molar value.
Where pKi equals or exceeds 6, the correct label is Condition met; where it does not, the label is Condition not met.

INSERT INTO assay_data (compound, tested_target, class) VALUES
  ('Cc1[nH]c(-c2ccccc2NCc2cc(Cl)cc(Cl)c2)cc1C(N)=O', 'BRD4 (BDI_K57-E168) (Homo sapiens, UniProt O60885)', 'Condition not met'),
  ('Cc1[nH]c(-c2ccccc2NCC2CCOC2)cc1C(N)=O (single isomer, unassigned) [Example 19]', 'BRD4 (BDI_K57-E168) (Homo sapiens, UniProt O60885)', 'Condition met'),
  ('Cc1[nH]c(-c2ccccc2NCc2ccc(NC(=O)OC(C)(C)C)cc2)cc1C(N)=O', 'BRD4 (BDI_K57-E168) (Homo sapiens, UniProt O60885)', 'Condition not met'),
  ('Cc1[nH]c(-c2ccccc2Oc2cccc3ncccc23)cc1C(N)=O', 'BRD4 (BDI_K57-E168) (Homo sapiens, UniProt O60885)', 'Condition met'),
  ('Cc1cccc(Oc2ccccc2-c2cc(C(N)=O)c(C)[nH]2)c1', 'BRD4 (BDI_K57-E168) (Homo sapiens, UniProt O60885)', 'Condition met');

# input Can Cc1[nH]c(-c2ccccc2Oc2cccc(Cl)c2)cc1C(N)=O be said to have pKi at or above 6?
# output Condition met

# input State whether the measured pKi reaches 6, counting equality as reaching it, for Cc1[nH]c(-c2ccc(N)cc2)cc1C(N)=O
# output Condition not met

# input Could you please find out whether Cc1[nH]c(-c2c(N)cccc2Oc2ccccc2)cc1C(N)=O has pKi that meets 6 or exceeds it?
# output Condition met
